assay: Antagonist activity at P2Y12 receptor in human platelets assessed as inhibition of ADP-induced platelet aggregation by turbidimetric method
pIC50: −log10 of the molar value.
pIC50 by entry:
readoutKind: pIC50

1. CCCSc1nc(N)c2ncn([C@@H]3O[C@H](COP(=O)(O)OP(=O)(O)C(Cl)(Cl)P(=O)(O)O)[C@@H](O)[C@H]3O)c2n1 8.60
2. Nc1ncnc2c1ncn2[C@@H]1O[C@H](COP(=O)(O)OP(=O)(O)C(Cl)(Cl)P(=O)(O)O)[C@@H](O)[C@H]1O 3.50
3. O=P(O)(OC[C@H]1O[C@@H](n2cnc3c(NCC(F)(F)F)nc(SCCC(F)(F)F)nc32)[C@H](O)[C@@H]1O)OP(=O)(O)C(Cl)(Cl)P(=O)(O)O 9.10
4. Nc1ncnc2c1ncn2[C@@H]1O[C@H](CO[P@@](=O)(O)O[P@](=O)(O)OP(=O)(O)O)[C@@H](O)[C@H]1O 3.60
